Origin of the recorded values: patent US12440492B2

- ASSAY_INFO: Particle size distribution (d10, d50, d90) by laser diffraction
- Format: physicochemical
- ASSAY_CONDITIONS: spray-dried amorphous ipatasertib monohydrochloride, rotary wheel atomizer
Where a name gives a salt, the structure may show the parent alone.
MEASURED_ENDPOINT: Particle size d50 (μm)
Write the value in μm as a bare number.

{"COMPOUND": "CC(C)NC[C@@H](C(=O)N1CCN(c2ncnc3c2[C@H](C)C[C@H]3O)CC1)c1ccc(Cl)cc1 [BS1506SA04, ipatasertib monohydrochloride]", "Particle size d50, μm": 30}
{"COMPOUND": "CC(C)NC[C@@H](C(=O)N1CCN(c2ncnc3c2[C@H](C)C[C@H]3O)CC1)c1ccc(Cl)cc1 [BS1506SA01, ipatasertib monohydrochloride]", "Particle size d50, μm": 31}

Now turn to the next compound.
Sample CC(C)NC[C@@H](C(=O)N1CCN(c2ncnc3c2[C@H](C)C[C@H]3O)CC1)c1ccc(Cl)cc1 [BS1506SA03, ipatasertib monohydrochloride] — what was its Particle size d50? 31
